System: Digitaria sanguinalis (DIGSA)
Assay: Post-emergence efficacy, Method A
Assay type: in vivo
Details: Digitaria sanguinalis, post-emergence, 312 h; Application rate 500 g/Ha; evaluated after 13 days; 100=total damage to plant, 0=no damage to plant; read-out: Control of weed species after post-emergence application, DIGSA
Label rule, in plain words: pest or weed control at 500 g/ha of 70% and up is yes (1), under 70% is no (0).

Query string: Is the recorded value of pest or weed control at 500 g/ha equal to or greater than 70% for this compound? Cc1n[n+](CCC(=O)O)ccc1-c1ccccn1 [Compound A145]
Result string: no (0)

Query string: Is the recorded value of pest or weed control at 500 g/ha equal to or greater than 70% for this compound? COC(=O)C[n+]1ccc(-c2ncccn2)cn1 [Compound A2]
Result string: no (0)

Query string: Is the recorded value of pest or weed control at 500 g/ha equal to or greater than 70% for this compound? O=S(=O)([O-])CC[n+]1ccc(-c2ccncn2)cn1 [Compound A4]
Result string: yes (1)

Query string: Is the recorded value of pest or weed control at 500 g/ha equal to or greater than 70% for this compound? CN(C)c1ccnc(-c2cc[n+](CCC(=O)[O-])nc2)n1 [Compound A45]
Result string: yes (1)

Query string: Is the recorded value of pest or weed control at 500 g/ha equal to or greater than 70% for this compound? O=S(=O)([O-])CC[n+]1ccc(-c2ccccn2)cn1 [Compound A64]
Result string: yes (1)

Query string: Is the recorded value of pest or weed control at 500 g/ha equal to or greater than 70% for this compound? O=S(=O)([O-])CC[n+]1ccc(-c2ccc(Cl)cn2)cn1 [Compound A69]
Result string: no (0)

Query string: Is the recorded value of pest or weed control at 500 g/ha equal to or greater than 70% for this compound? COc1nc(-c2cc[n+](CCC(=O)[O-])nc2)ncc1C [Compound A106]
Result string: no (0)

Query string: Is the recorded value of pest or weed control at 500 g/ha equal to or greater than 70% for this compound? CS(=O)(=O)c1cnc(-c2cc[n+](CCS(=O)(=O)[O-])nc2)nc1 [Compound A15]
Result string: no (0)

Query string: Is the recorded value of pest or weed control at 500 g/ha equal to or greater than 70% for this compound? COc1ccnc(-c2cc[n+](CCC(=O)[O-])nc2)n1 [Compound A101]
Result string: no (0)

Query string: Is the recorded value of pest or weed control at 500 g/ha equal to or greater than 70% for this compound? COc1ccc(-c2cc[n+](CCCS(=O)(=O)[O-])nc2)nn1 [Compound A115]
Result string: no (0)

Query string: Is the recorded value of pest or weed control at 500 g/ha equal to or greater than 70% for this compound? CN(C)c1cnc(-c2cc[n+](CCS(=O)(=O)[O-])nc2)nc1 [Compound A18]
Result string: no (0)

Query string: Is the recorded value of pest or weed control at 500 g/ha equal to or greater than 70% for this compound? O=S(=O)([O-])CC[n+]1ccc(-c2ccnc(C(F)(F)F)n2)cn1 [Compound A108]
Result string: no (0)

Query string: Is the recorded value of pest or weed control at 500 g/ha equal to or greater than 70% for this compound? CN(C)C(=O)c1cnc(-c2cc[n+](CCC(=O)[O-])nc2)nc1 [Compound A92]
Result string: no (0)

Query string: Is the recorded value of pest or weed control at 500 g/ha equal to or greater than 70% for this compound? O=c1cc(-c2cc[n+](CCS(=O)(=O)[O-])nc2)nc[nH]1 [Compound A57]
Result string: yes (1)

Query string: Is the recorded value of pest or weed control at 500 g/ha equal to or greater than 70% for this compound? O=C(O)CC[n+]1ccc(-c2nccc(=O)[nH]2)cn1 [Compound A127]
Result string: yes (1)

Query string: Is the recorded value of pest or weed control at 500 g/ha equal to or greater than 70% for this compound? COc1nccc(-c2cc[n+](CCS(=O)(=O)[O-])nc2)n1 [Compound A60]
Result string: yes (1)
